These measurements were taken from ChEMBL document CHEMBL1155897.

Target: Mu-type opioid receptor (Cavia porcellus)
Sequence (P97266 whole entry): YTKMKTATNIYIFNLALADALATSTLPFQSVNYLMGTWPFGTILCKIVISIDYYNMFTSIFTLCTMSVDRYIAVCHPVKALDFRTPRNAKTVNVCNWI
Assay: Displacement of [3H]DAMGO from mu opioid receptor in Hartley guinea pig brain membrane
Assay type: cell membranes
pKi: −log10 of the molar value.
Hi, to clarify the labels: satisfied covers pKi from 7 upward, not satisfied covers anything below 7.

Examples with answers:
- molecule: "CCn1c2c(c3cccc(C)c31)C[C@@]1(O)[C@H]3Cc4ccc(OC)c5c4[C@@]1(CCN3CC1CC1)[C@H]2O5"
  measured_target: "Mu-type opioid receptor (Cavia porcellus)"
  label_class: "not satisfied"
- molecule: "Oc1ccc2c3c1O[C@H]1c4[nH]c5c6c(ccc5c4C[C@@]4(O)[C@@H](C2)N(CC2CC2)CC[C@]314)CCCC6"
  measured_target: "Mu-type opioid receptor (Cavia porcellus)"
  label_class: "not satisfied"
- molecule: "Oc1ccc2c3c1O[C@H]1c4c(c5cccc6c5n4CC6)C[C@@]4(O)[C@@H](C2)N(CC2CC2)CC[C@]314"
  measured_target: "Mu-type opioid receptor (Cavia porcellus)"
  label_class: "satisfied"

Hello, I need to know if COc1ccc2c3c1O[C@H]1c4c(c5cccc6c5n4CCC6)C[C@@]4(O)[C@@H](C2)N(CC2CC2)CC[C@]314.CS(=O)(=O)O has measured pKi not below 7. Thanks! not satisfied

Reported pKi reaches at least 7 for Oc1ccc2c3c1O[C@H]1c4c(c5cccc6c5n4CCC6)C[C@@]4(O)[C@@H](C2)N(CC2CC2)CC[C@]314 ? satisfied

Could you tell me if the measured pKi of COc1ccc2c3c1O[C@H]1c4c(c5cccc6c5n4CCCC6)C[C@@]4(O)[C@@H](C2)N(CC2CC2)CC[C@]314 reaches 7 or more? not satisfied

Is pKi at least 7? Consider Oc1ccc2c3c1O[C@H]1c4[nH]c5ccccc5c4C[C@@]4(O)[C@@H](C2)N(CC2CC2)CC[C@]314 [NALTRINDOLE] satisfied

* * *

Below: a set of entries, each annotated with reported Ki.
Molecular target: Kappa-type opioid receptor (Cavia porcellus)
Sequence (P41144 whole entry): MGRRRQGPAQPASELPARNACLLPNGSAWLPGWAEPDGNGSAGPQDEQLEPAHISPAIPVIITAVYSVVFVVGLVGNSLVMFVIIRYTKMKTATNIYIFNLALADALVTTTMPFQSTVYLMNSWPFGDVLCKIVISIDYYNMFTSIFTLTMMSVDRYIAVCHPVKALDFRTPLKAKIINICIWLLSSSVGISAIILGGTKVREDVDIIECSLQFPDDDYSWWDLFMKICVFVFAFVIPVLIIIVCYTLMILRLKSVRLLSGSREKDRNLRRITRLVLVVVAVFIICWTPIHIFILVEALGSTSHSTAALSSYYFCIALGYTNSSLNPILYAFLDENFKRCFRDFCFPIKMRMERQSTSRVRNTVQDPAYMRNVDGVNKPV
Assay: Displacement of […] from kappa opioid receptor in Hartley guinea pig brain membrane
Type: cell membranes
Reply with just the number (in nM).

- compound: "Oc1ccc2c3c1O[C@H]1c4c(c5cccc6c5n4CC6)C[C@@]4(O)[C@@H](C2)N(CC2CC2)CC[C@]314"
  endpoint_result: 7.99
- compound: "Oc1ccc2c3c1O[C@H]1c4[nH]c5c6c(ccc5c4C[C@@]4(O)[C@@H](C2)N(CC2CC2)CC[C@]314)CCCC6"
  endpoint_result: 52
- compound: "Oc1ccc2c3c1O[C@H]1c4c(c5cccc6c5n4CCC6)C[C@@]4(O)[C@@H](C2)N(CC2CC2)CC[C@]314"
  endpoint_result: 15.1

Now take the following compound into account.
Quick one: Ki for Oc1ccc2c3c1O[C@H]1c4c(c5cccc6c5n4CCCC6)C[C@@]4(O)[C@@H](C2)N(CC2CC2)CC[C@]314 ? 40

* * *

Species on record: Cavia porcellus
Assay: Selectivity for delta opioid receptor over mu opioid receptor in Hartley guinea pig brain membrane
Assay type: cell membranes
Overview of recorded Selectivity ratio for various molecules
Quick one: just the number, no unit, thanks!

- molecule: "Oc1ccc2c3c1O[C@H]1c4[nH]c5ccccc5c4C[C@@]4(O)[C@@H](C2)N(CC2CC2)CC[C@]314 [NALTRINDOLE]"
  measured_endpoint: "Selectivity ratio"
  endpoint_result: 94

Any idea what Selectivity ratio was measured for Oc1ccc2c3c1O[C@H]1c4c(c5cccc6c5n4CCCC6)C[C@@]4(O)[C@@H](C2)N(CC2CC2)CC[C@]314 ? 50

Form field: reported Selectivity ratio of Oc1ccc2c3c1O[C@H]1c4[nH]c5c6c(ccc5c4C[C@@]4(O)[C@@H](C2)N(CC2CC2)CC[C@]314)CCCC6 32

Using the record for Oc1ccc2c3c1O[C@H]1c4c(c5cccc6c5n4CC6)C[C@@]4(O)[C@@H](C2)N(CC2CC2)CC[C@]314 , report its Selectivity ratio. 79

Would you mind telling me what Selectivity ratio value was observed for Oc1ccc2c3c1O[C@H]1c4c(c5cccc6c5n4CCC6)C[C@@]4(O)[C@@H](C2)N(CC2CC2)CC[C@]314 ? 90

* * *

Experiment: Binding affinity to guinea pig delta opioid receptor
Design: species or system Cavia porcellus
measured_endpoint: Ki (nM)
Report as a plain number; the unit nM is understood.

- structure_as_smiles: "COc1ccc2c3c1O[C@H]1c4[nH]c5ccccc5c4C[C@@]4(O)[C@@H](C2)N(CC2CC2)CC[C@]314"
  unit_symbol: "nM"
  Ki: 6.57

// returns reported Ki for input Oc1ccc2c3c1O[C@H]1c4[nH]c5ccccc5c4C[C@@]4(O)[C@@H](C2)N(CC2CC2)CC[C@]314 0.217

* * *

Molecular target: Kappa-type opioid receptor (Homo sapiens) (UniProt P41145)
Sequence (P41145 whole entry): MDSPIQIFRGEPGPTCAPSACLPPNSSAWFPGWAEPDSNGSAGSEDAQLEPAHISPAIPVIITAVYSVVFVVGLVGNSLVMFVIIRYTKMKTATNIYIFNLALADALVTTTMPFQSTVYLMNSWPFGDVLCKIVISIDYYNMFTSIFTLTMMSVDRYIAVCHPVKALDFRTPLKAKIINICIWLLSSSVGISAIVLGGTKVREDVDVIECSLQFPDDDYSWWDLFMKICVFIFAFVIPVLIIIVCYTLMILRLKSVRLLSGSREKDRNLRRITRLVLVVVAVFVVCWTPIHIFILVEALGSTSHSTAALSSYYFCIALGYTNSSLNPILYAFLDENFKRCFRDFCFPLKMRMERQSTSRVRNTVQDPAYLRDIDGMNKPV
Test: Agonist activity at human kappa opioid receptor expressed in HEK293 cells assessed as stimulation of [35S]GTPgammaS binding at 1 uM relative to U69,593
Format: functional, cell-based
measured_endpoint: Activity (%)
Report the figure in % without appending any unit label.

The following compounds have reported results that may help.
- compound: "CCn1c2c(c3cccc(C)c31)C[C@@]1(O)[C@H]3Cc4ccc(OC)c5c4[C@@]1(CCN3CC1CC1)[C@H]2O5"
  endpoint_result: 21
- compound: "Oc1ccc2c3c1O[C@H]1c4[nH]c5ccccc5c4C[C@@]4(O)[C@@H](C2)N(CC2CC2)CC[C@]314 [NALTRINDOLE]"
  endpoint_result: 12
- compound: "COc1ccc2c3c1O[C@H]1c4c(c5cccc6c5n4CCC6)C[C@@]4(O)[C@@H](C2)N(CC2CC2)CC[C@]314.CS(=O)(=O)O"
  endpoint_result: 8
- compound: "Oc1ccc2c3c1O[C@H]1c4[nH]c5c6c(ccc5c4C[C@@]4(O)[C@@H](C2)N(CC2CC2)CC[C@]314)CCCC6"
  endpoint_result: 33
- compound: "Oc1ccc2c3c1O[C@H]1c4c(c5cccc6c5n4CCCC6)C[C@@]4(O)[C@@H](C2)N(CC2CC2)CC[C@]314"
  endpoint_result: 32

So what does the record say about Activity for Oc1ccc2c3c1O[C@H]1c4c(c5cccc6c5n4CC6)C[C@@]4(O)[C@@H](C2)N(CC2CC2)CC[C@]314 ? 3

Entry under review: Oc1ccc2c3c1O[C@H]1c4c(c5cccc6c5n4CCC6)C[C@@]4(O)[C@@H](C2)N(CC2CC2)CC[C@]314 . Reported Activity? 26

Activity lookup needed for COc1ccc2c3c1O[C@H]1c4c(c5cccc6c5n4CCCC6)C[C@@]4(O)[C@@H](C2)N(CC2CC2)CC[C@]314 , thanks. 11

* * *

Molecular target: Delta-type opioid receptor (Homo sapiens) (UniProt P41143)
Sequence (P41143 whole entry): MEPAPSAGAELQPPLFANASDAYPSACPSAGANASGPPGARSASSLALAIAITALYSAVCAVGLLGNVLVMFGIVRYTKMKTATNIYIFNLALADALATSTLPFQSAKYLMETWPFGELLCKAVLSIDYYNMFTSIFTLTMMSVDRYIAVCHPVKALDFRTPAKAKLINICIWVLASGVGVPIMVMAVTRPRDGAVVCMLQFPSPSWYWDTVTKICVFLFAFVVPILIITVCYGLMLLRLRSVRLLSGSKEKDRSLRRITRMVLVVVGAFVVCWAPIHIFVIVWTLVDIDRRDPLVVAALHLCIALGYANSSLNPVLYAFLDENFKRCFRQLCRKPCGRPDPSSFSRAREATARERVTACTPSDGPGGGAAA
Assay: Agonist activity at human delta opioid receptor expressed in CHO cells assessed as stimulation of [35S]GTPgammaS binding at 1 uM relative to DPDPE
Assay type: functional, cell-based
Mark N for Activity values under 40%, and Y for everything at or above.

Completed entries (count: 7):
- structure_as_smiles: "Oc1ccc2c3c1O[C@H]1c4[nH]c5c6c(ccc5c4C[C@@]4(O)[C@@H](C2)N(CC2CC2)CC[C@]314)CCCC6"
  measured_target: "Delta-type opioid receptor (Homo sapiens) (UniProt P41143)"
  label_class: "N"
- structure_as_smiles: "COc1ccc2c3c1O[C@H]1c4c(c5cccc6c5n4CCCC6)C[C@@]4(O)[C@@H](C2)N(CC2CC2)CC[C@]314"
  measured_target: "Delta-type opioid receptor (Homo sapiens) (UniProt P41143)"
  label_class: "Y"
- structure_as_smiles: "Oc1ccc2c3c1O[C@H]1c4[nH]c5ccccc5c4C[C@@]4(O)[C@@H](C2)N(CC2CC2)CC[C@]314"
  measured_target: "Delta-type opioid receptor (Homo sapiens) (UniProt P41143)"
  label_class: "N"
- structure_as_smiles: "Oc1ccc2c3c1O[C@H]1c4c(c5cccc6c5n4CC6)C[C@@]4(O)[C@@H](C2)N(CC2CC2)CC[C@]314"
  measured_target: "Delta-type opioid receptor (Homo sapiens) (UniProt P41143)"
  label_class: "N"
- structure_as_smiles: "CCn1c2c(c3cccc(C)c31)C[C@@]1(O)[C@H]3Cc4ccc(OC)c5c4[C@@]1(CCN3CC1CC1)[C@H]2O5"
  measured_target: "Delta-type opioid receptor (Homo sapiens) (UniProt P41143)"
  label_class: "Y"
- structure_as_smiles: "Oc1ccc2c3c1O[C@H]1c4c(c5cccc6c5n4CCCC6)C[C@@]4(O)[C@@H](C2)N(CC2CC2)CC[C@]314"
  measured_target: "Delta-type opioid receptor (Homo sapiens) (UniProt P41143)"
  label_class: "N"
- structure_as_smiles: "Oc1ccc2c3c1O[C@H]1c4c(c5cccc6c5n4CCC6)C[C@@]4(O)[C@@H](C2)N(CC2CC2)CC[C@]314"
  measured_target: "Delta-type opioid receptor (Homo sapiens) (UniProt P41143)"
  label_class: "N"

# ---- query compound ----
Can COc1ccc2c3c1O[C@H]1c4c(c5cccc6c5n4CCC6)C[C@@]4(O)[C@@H](C2)N(CC2CC2)CC[C@]314.CS(=O)(=O)O be said to have Activity at or above 40%? Y
